- assay.target: T1, recombinant human MASP1 active protease (amino acids 297-699, C-terminal His Tag) (human, UniProt P48740 297-699)
- T1 sequence: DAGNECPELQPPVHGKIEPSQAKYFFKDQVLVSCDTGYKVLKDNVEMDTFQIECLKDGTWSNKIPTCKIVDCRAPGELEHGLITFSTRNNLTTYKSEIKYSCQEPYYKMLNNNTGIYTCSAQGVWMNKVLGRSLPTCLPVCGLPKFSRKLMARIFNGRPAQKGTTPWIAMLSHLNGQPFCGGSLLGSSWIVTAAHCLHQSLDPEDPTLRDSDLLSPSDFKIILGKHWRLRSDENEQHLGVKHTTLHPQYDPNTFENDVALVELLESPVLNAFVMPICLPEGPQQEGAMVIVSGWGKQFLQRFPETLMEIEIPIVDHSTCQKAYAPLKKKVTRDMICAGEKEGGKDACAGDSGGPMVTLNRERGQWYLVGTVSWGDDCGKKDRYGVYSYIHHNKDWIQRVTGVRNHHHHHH
- test.details: cell-based or functional assay
Bridge positions count the residues as written; N and C are the ends. Square brackets hold non-standard residues; d marks the D form. Ends that are not written are not given here. Oic = O=C(O)[C@@H]1C[C@@H]2CCCC[C@@H]2N1; tBuAla = CC(C)(C)C[C@H](N)C(=O)O; 2Thi = N[C@@H](Cc1cccs1)C(=O)O; Pen = CC(C)(S)[C@H](N)C(=O)O; NMeA = CN[C@@H](C)C(=O)O; Orn = NCCC[C@H](N)C(=O)O
Would you mind telling me the reported human MASP1 IC50 of each entry?
Entry rule: numbers only, all in nM.

According to the records, this binder AICSRSLP[rel‑(1R,3R,5R,6R)‑6‑(Trifluoromethyl)‑2‑azabicyclo(3.1.0)hexane‑3‑carboxylic acid]ICIPD-NH2 (disulfide 3-11) displays human MASP1 IC50 of 2.8

According to the records, this binder PICSRS[tBuAla]PPI[Pen]IPD-NH2 (disulfide 3-11; N-terminus assumed; SMILES CC[C@H](C)[C@H](NC(=O)[C@@H]1CCCN1)C(=O)N[C@H]1CSSC(C)(C)[C@@H](C(=O)N[C@H](C(=O)N2CCC[C@H]2C(=O)N[C@@H](CC(=O)O)C(N)=O)[C@@H](C)CC)NC(=O)[C@H]([C@@H](C)CC)NC(=O)[C@@H]2CCCN2C(=O)[C@@H]2CCCN2C(=O)[C@H](CC(C)(C)C)NC(=O)[C@H](CO)NC(=O)[C@H](CCCNC(=N)N)NC(=O)[C@H](CO)NC1=O) [PIC+SRS-((tBu)A)-PPI-(Pen)+IPD-NH2] displays human MASP1 IC50 of 1.14

According to the records, this binder [2Thi]ICSRS[tBuAla]PPI[Pen]IPD-NH2 (disulfide 3-11; N-terminus assumed; SMILES CC[C@H](C)[C@H](NC(=O)[C@@H](N)Cc1cccs1)C(=O)N[C@H]1CSSC(C)(C)[C@@H](C(=O)N[C@H](C(=O)N2CCC[C@H]2C(=O)N[C@@H](CC(=O)O)C(N)=O)[C@@H](C)CC)NC(=O)[C@H]([C@@H](C)CC)NC(=O)[C@@H]2CCCN2C(=O)[C@@H]2CCCN2C(=O)[C@H](CC(C)(C)C)NC(=O)[C@H](CO)NC(=O)[C@H](CCCNC(=N)N)NC(=O)[C@H](CO)NC1=O) [(beta-2-thienylalanine)-IC+SRS-((tBu)A)-PPI-(Pen)+IPD-NH2] displays human MASP1 IC50 of 2.6

According to the records, this binder [NMeA]ICSRSLP[Oic]I[Pen]IPD-NH2 (disulfide 3-11; N-terminus assumed; SMILES CC[C@H](C)[C@H](NC(=O)[C@H](C)NC)C(=O)N[C@H]1CSSC(C)(C)[C@@H](C(=O)N[C@H](C(=O)N2CCC[C@H]2C(=O)N[C@@H](CC(=O)O)C(N)=O)[C@@H](C)CC)NC(=O)[C@H]([C@@H](C)CC)NC(=O)[C@@H]2C[C@@H]3CCCC[C@@H]3N2C(=O)[C@@H]2CCCN2C(=O)[C@H](CC(C)C)NC(=O)[C@H](CO)NC(=O)[C@H](CCCNC(=N)N)NC(=O)[C@H](CO)NC1=O) [((N-Me)A)-IC+SRSLP-(Oic)-I-(Pen)+IPD-NH2] displays human MASP1 IC50 of 2.8

According to the records, this binder [Orn]ICSRS[tBuAla]PPI[Pen]IPD-OH (disulfide 3-11; N-terminus assumed; SMILES CC[C@H](C)[C@H](NC(=O)[C@@H](N)CCCN)C(=O)N[C@H]1CSSC(C)(C)[C@@H](C(=O)N[C@H](C(=O)N2CCC[C@H]2C(=O)N[C@@H](CC(=O)O)C(=O)O)[C@@H](C)CC)NC(=O)[C@H]([C@@H](C)CC)NC(=O)[C@@H]2CCCN2C(=O)[C@@H]2CCCN2C(=O)[C@H](CC(C)(C)C)NC(=O)[C@H](CO)NC(=O)[C@H](CCCNC(=N)N)NC(=O)[C@H](CO)NC1=O) [(Orn)-IC+SRS-((tBu)A)-PPI-(Pen)+IPD-OH] displays human MASP1 IC50 of 1.35
